Values compiled from the supplement of paper PMC6555819.

System: RARa homodimer (NR concentration 270 nM)
Assay: PBM binding z-score (relative to random genomic background probes); higher = stronger binding; sequences stand for … in GC…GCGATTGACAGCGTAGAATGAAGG

{"record sequence": "TATACGGGGTCAAAGGCCAGAGTACGAATGTCGA", "PBM binding z-score": 1.66}
{"record sequence": "AGTCAAAGTTCAGGACGAGGTAACGTTAAGCACG", "PBM binding z-score": 0.838}
{"record sequence": "CGTCCAAGGTTAAGGTCAGTGAAAGAGACTCGAA", "PBM binding z-score": 0.781}
{"record sequence": "AGAATGGGGTTACCAAAGATCAGGGAAACGCTTG", "PBM binding z-score": -0.368}
{"record sequence": "CCAACTGGGCCAAAAAGGTCATTGATGCCGATAA", "PBM binding z-score": 1.31}
{"record sequence": "CCTACTGGGCCAAAGGTGATTGATTCCAATGCTC", "PBM binding z-score": -0.309}
{"record sequence": "CAAAATAGGTCACGAAAGGTCAAAGTCGAATGAC", "PBM binding z-score": 7.69}
{"record sequence": "CAAAATAGGTCAAAGGTCAAAGTCGAGCCAACCA", "PBM binding z-score": 3.71}
{"record sequence": "GATACAGGGTCAAGGTCAGAGTACGCGTATTGAT", "PBM binding z-score": 2.12}
{"record sequence": "GCTAGTTGGTCAGTAAAATGTCACACACCGGTCG", "PBM binding z-score": 0.262}
{"record sequence": "CGAACGAGGTCATTGACAGGACAGTGAATAGTAA", "PBM binding z-score": 0.884}
{"record sequence": "TCTTGTAGATCAACAGGAGGTTAATAAAGATCGA", "PBM binding z-score": 0.176}
